test-target: biotinylated His-Avi-TEAD (194-411) (UniProt P28347)
experiment: SSM screen, enrichment after two rounds of sorting
experimental-endpoint: enrichment score

Some solved cases for reference:
>>> result_number("GSPDEYIERLKECCKKGDIQCCLRYFEESGDPNVMLICLFCP (designed binder) [A08L variant of SEQ ID NO: 1]")
-9.93
>>> result_number("GSPDEYIERAKECCKKWDIQCCLRYFEESGDPNVMLICLFCP (designed binder) [G15W variant of SEQ ID NO: 1]")
-4.75
>>> result_number("GSPDEYIERAKECCKKGWIQCCLRYFEESGDPNVMLICLFCP (designed binder) [D16W variant of SEQ ID NO: 1]")
-2.3
>>> result_number("GSPDEYIERAKECCKKTDIQCCLRYFEESGDPNVMLICLFCP (designed binder) [G15T variant of SEQ ID NO: 1]")
2.65

(1) GSPDEYIERAKDCCKKGDIQCCLRYFEESGDPNVMLICLFCP (designed binder) [E10D variant of SEQ ID NO: 1]
(2) GSPDEYIERAPECCKKGDIQCCLRYFEESGDPNVMLICLFCP (designed binder) [K09P variant of SEQ ID NO: 1]
### Prompt Between 1 and 2 , whose measured enrichment score reads higher? Return value: the label identifying the chosen record.
### Response 1
